Measured pEC50 accompanies every entry in the list below.
System: A549 cells
methodDescription: Proliferation Assay (A549 viability, Cell Titer Fluor, 72 hours)
Type: cell-based
pEC50: −log10 of the molar value.

Here are 3 compounds together with their reported answers.
CNC(=O)c1cn(C[C@@H](F)CCc2nnc(NC(=O)Cc3cccc(OC(F)(F)F)c3)s2)nn1 [Example 193] ... 5.30 to 6.30
O=C(NCc1cccc(OC(F)(F)F)c1)c1cn(CCCCn2cc(C(=O)NCC3CC4CCC3O4)nn2)nn1 (centres unmarked) [Example 115] ... 5.30 to 6.30
CNC(=O)c1cn(C[C@@H](F)CCc2nnc(NC(=O)Cc3cccc(OC(F)(F)F)c3)s2)nn1 [Example 239] ... 6.30 to 7.00

Exam item: Indicate its recorded pEC50; the compound in question is O=C(NCc1cccc(OC(F)(F)F)c1)c1cn(CCCCn2cc(C(=O)NCC3CC4CCC3O4)nn2)nn1 (centres unmarked) [Example 116]
Marked response: 6.30 to 7.00

Exam item: Please report the measured pEC50 for CNC(=O)c1cn(C[C@@H](F)CCc2nnc(NC(=O)Cc3cccc(OC(F)(F)F)c3)s2)nn1 [Example 194]
Marked response: > 7.00

Hello, the source for this data is patent US10344025B2, in case you need it.
